# Protocol Details: Drug concentration in SCID-Beige mouse at 5 mg/kg, ip after 12 hrs
# Type: ADME, organism-based
# Parameters: dose 5 mg/kg, route intraperitoneal
# Details: in vivo, read-out: Drug uptake
Quantity Name: concentration at 12 h (nM)
Enter your answer as a number in nM; do not include the unit.

Provide only the value of recorded concentration at 12 h for `CN(C)CC#Cc1ccc(OCCCc2sc(N3CCc4cccc(C(=O)Nc5nc6ccccc6s5)c4C3)nc2C(=O)O)c(F)c1` 180

---

# Target Under Test: UniProt:Q07817
# Sequence (Q07817 whole entry): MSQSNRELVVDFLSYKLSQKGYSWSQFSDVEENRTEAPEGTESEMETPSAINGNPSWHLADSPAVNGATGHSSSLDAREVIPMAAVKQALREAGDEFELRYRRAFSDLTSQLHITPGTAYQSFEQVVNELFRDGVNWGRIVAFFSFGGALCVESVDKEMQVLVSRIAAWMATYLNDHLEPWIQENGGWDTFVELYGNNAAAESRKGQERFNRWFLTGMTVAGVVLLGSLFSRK
# Protocol Details: Inhibition of BCL-XL (unknown origin) incubated for 1 hr in presence of 1% human serum by TR-FRET assay
Quantity Name: log10 Ki (log10 of the value in nM)
Quick note: numbers are log10 of Ki, with nM as the unit.

Illustrative cases are given below, each with its answer.
- CN(C)CC#Cc1ccc(OCCCc2sc(N3CCc4cccc(C(=O)Nc5nc6ccccc6s5)c4C3)nc2C(=O)O)cc1F: 0.05
- CN(C)CC#Cc1ccc(OCCCc2sc(N3CCc4cccc(C(=O)Nc5nc6ccccc6s5)c4C3)nc2C(=O)O)c(F)c1 [A-1155463]: -1.00
- CN(C)CC#Cc1ccc(OCCCc2sc(N3CCc4cccc(C(=O)Nc5nc6ccccc6s5)c4C3)nc2C(=O)O)cc1: -0.55
- CN(C)CC#Cc1ccc(OCCCc2sc(N3CCc4cccc(C(=O)Nc5nc6ccccc6s5)c4C3)nc2C(=O)O)c(Cl)c1: -0.39
- O=C(Nc1nc2ccccc2s1)c1cccc2c1CN(c1nc(C(=O)O)c(CCCCOc3ccc(-n4ncc5cncnc54)cc3)s1)CC2: 1.74

Report measured log10 Ki on UniProt:Q07817; entry: `O=C(Nc1nc2ccccc2s1)c1cccc2c1CN(c1nc(C(=O)O)c(CCOc3cccc(-n4ncc5cncnc54)c3)s1)CC2` 1.61

Report measured log10 Ki on UniProt:Q07817; entry: `O=C(Nc1nc2ccccc2s1)c1cccc2c1CN(c1nc(C(=O)O)c(CCCOc3cccc(-n4ncc5cncnc54)c3)s1)CC2` 1.02

Report measured log10 Ki on UniProt:Q07817; entry: O=C(Nc1nc2ccccc2s1)c1cccc2c1CN(c1nc(C(=O)O)c(CCOc3ccc(-n4ncc5cncnc54)cc3)s1)CC2 [A-1107969] 2.51
